All figures here come from PubChem BioAssay (Tox21).

Assay: qHTS RealTime-Glo MT Cell Viability Assay in HepG2 cells - 16 hour (AID 1224885); note: nearly all actives have a fitted effect of over 50% in size
Conditions: RealTime-Glo luminescence; series mostly up to 76.8 µM
Description: U.S. Tox21 Program National Center for Advancing Translational Sciences [NCATS] NIH Chemical Genomics Center [NCGC] U.S. Environmental Protection Agency [EPA] National Institutes of Environmental Health Sciences [NIEHS] National Toxicology Program [NTP] U.S. Food and Drug Administration [FDA] Tox21 Assay Overview: Measure of cell viability is critical in the cell-base assay. Analysis of cell viability is necessary for the characterization of cell responses to cytotoxic drugs and environmental stress. […]
Results filed as inconclusive are left out. Calls of active or inactive are those of the source. Calls come from the whole dose curve; as a rule, active = well fitted cell-killing curve with a large enough effect in the repeat runs; inconclusive = weak or mixed curves; inactive = flat fitted curve, though single readings scatter.
Use one of these outcomes when replying: active, inactive

Which outcome did this test record for the compound Cc1cn([C@H]2C=C[C@@H](CO)O2)c(=O)[nH]c1=O ?
inactive

Which outcome did this test record for the compound COc1ccc2cc(S(=O)(=O)N[C@H](CC(=O)N[C@H](Cc3ccc(CN4[C@H](C)CCC[C@@H]4C)cc3)C(=O)N(C)C(C)C)c3ccc4c(c3)OCO4)ccc2c1 ?
active

Continuing:
Which outcome did this test record for the compound CN(N=O)C(=O)N[C@@H]1[C@@H](O)[C@H](O)[C@@H](CO)O[C@@H]1O ?
inactive

Which outcome did this test record for the compound C=C1CC[C@H](O)C/C1=C\C=C1/CCC[C@]2(C)[C@@H]([C@H](C)CCCC(C)C)CC[C@@H]12 ?
inactive

Which outcome did this test record for the compound CC1(C)O[C@@H]2C[C@H]3[C@@H]4CCC5=CC(=O)C=C[C@]5(C)[C@@]4(F)[C@@H](O)C[C@]3(C)[C@]2(C(=O)CO)O1 ?
inactive

Which outcome did this test record for the compound CN(C)CCOC(c1ccccc1)c1ccccc1 ?
inactive

Which outcome did this test record for the compound Nc1c2c(nc3ccccc13)CCCC2 ?
inactive

Which outcome did this test record for the compound CCc1nc(N)nc(N)c1-c1ccc(Cl)cc1 ?
inactive

Which outcome did this test record for the compound COc1ccc2c(c1)c(CC(=O)O)c(C)n2C(=O)c1ccc(Cl)cc1 ?
inactive

Which outcome did this test record for the compound CCCc1cc(=O)[nH]c(=S)[nH]1 ?
inactive

* * *

assay: qHTS assay to identify small molecule agonists of the hypoxia (HIF-1) signaling pathway - cell viability counter screen (AID 1224844); settings: HRE-bla ME-180 viability, CellTiter-Glo luminescence, 17 h; series mostly up to 76.8 µM; note: nearly all actives have a fitted effect of over 50% in size
Results filed as inconclusive are left out. Activity calls are given as the source filed them. The call rests on the fitted dose curve.
Use one of these outcomes when replying: yes (active), no (inactive)

Which outcome did this test record for the compound CS(=O)(=O)OCCCCOS(C)(=O)=O ?
no

Which outcome did this test record for the compound CN1[C@@H]2CC(OC(=O)[C@H](CO)c3ccccc3)C[C@H]1[C@@H]1O[C@@H]12 (stereo partly drawn) ?
no

Continuing:
Which outcome did this test record for the compound O=c1[nH]cnc2c1ncn2[C@H]1CC[C@@H](CO)O1 ?
no

Which outcome did this test record for the compound CN[C@H]1CC[C@@H](c2ccc(Cl)c(Cl)c2)c2ccccc21 ?
no

* * *

assay: qHTS assay for small molecule agonists of the p53 signaling pathway - cell viability (AID 651633); conditions: p53RE-bla HCT-116 viability, ATP luminescence, 16 h; series mostly up to 83.3 µM;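 note: p53RE-bla HCT reporter cells with a stable beta-lactamase p53 reporter; nearly all actives have a fitted effect of over 30% in size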
Records with an inconclusive call do not appear. Calls of active or inactive are those of the source. Calls follow the shape of the full dose curve.
Use one of these outcomes when replying: active, inactive

Which outcome did this test record for the compound Nc1c2c(nc3ccccc13)CCCC2 ?
inactive

Which outcome did this test record for the compound CNNCc1ccc(C(=O)NC(C)C)cc1 ?
inactive

Which outcome did this test record for the compound CC(O)(P(=O)(O)O)P(=O)(O)O ?
inactive

Which outcome did this test record for the compound OC[C@H]1O[C@H](O[C@]2(CCl)O[C@H](CCl)[C@@H](O)[C@@H]2O)[C@H](O)[C@@H](O)[C@H]1Cl ?
inactive

Which outcome did this test record for the compound COc1ccc2c(c1)c(CC(=O)O)c(C)n2C(=O)c1ccc(Cl)cc1 ?
inactive

Which outcome did this test record for the compound CC1(C)O[C@@H]2C[C@H]3[C@@H]4CCC5=CC(=O)C=C[C@]5(C)[C@@]4(F)[C@@H](O)C[C@]3(C)[C@]2(C(=O)CO)O1 ?
inactive

Which outcome did this test record for the compound CC(C)C(=O)Nc1ccc([N+](=O)[O-])c(C(F)(F)F)c1 ?
inactive

Which outcome did this test record for the compound CCOc1ccc(NC(C)=O)cc1 ?
inactive

Continuing:
Which outcome did this test record for the compound CC(=O)Nc1c(I)c(NC(C)=O)c(I)c(C(=O)O)c1I ?
inactive

Which outcome did this test record for the compound CCCCC(CC)C(=O)O (configuration not stated) ?
inactive

* * *

Assay: qHTS assay for identifying genotoxic compounds that show differential cytotoxicity against isogenic chicken DT40 cell lines with known DNA damage response pathways - Rad54/Ku70 mutant cell line (AID 743015); note: nearly all actives have a fitted effect of over 60% in size
Conditions: DT40 Rad54/Ku70 mutant viability, CellTiter-Glo, 40 h; series mostly up to 66.8 µM
Description: National Center for Advancing Translational Sciences [NCATS] NIH Chemical Genomics Center [NCGC] U.S. Environmental Protection Agency [EPA] National Institutes of Environmental Health Sciences [NIEHS] National Toxicology Program [NTP] U.S. Food and Drug Administration [FDA] DNA repair pathways play a critical role in cellular homeostasis by repairing DNA damage induced by endogenous processes and xenobiotics. […]
Records with an inconclusive call do not appear. Active and inactive are the calls of the source. Calls come from the whole dose curve; as a rule, active = well fitted cell-killing curve with a large enough effect in the repeat runs; inconclusive = weak or mixed curves; inactive = no such curve, though single readings can be large or run the other way.
Use one of these outcomes when replying: 1 for active, -1 for inactive

// below: answered compounds
Which outcome did this test record for the compound NC(=O)c1cccnc1 ?
-1

Which outcome did this test record for the compound Cc1cn([C@H]2C=C[C@@H](CO)O2)c(=O)[nH]c1=O ?
-1

Which outcome did this test record for the compound Cc1cccc(C)c1 ?
-1

Which outcome did this test record for the compound CCCCNC(=O)NS(=O)(=O)c1ccc(C)cc1 ?
-1

Continuing:
Which outcome did this test record for the compound COc1ccc2c(c1)c(CC(=O)O)c(C)n2C(=O)c1ccc(Cl)cc1 ?
-1

Which outcome did this test record for the compound CC1(C)O[C@@H]2C[C@H]3[C@@H]4CCC5=CC(=O)C=C[C@]5(C)[C@@]4(F)[C@@H](O)C[C@]3(C)[C@]2(C(=O)CO)O1 ?
-1

Which outcome did this test record for the compound CC(=O)Nc1c(I)c(NC(C)=O)c(I)c(C(=O)O)c1I ?
-1

Which outcome did this test record for the compound O=C1NS(=O)(=O)c2ccccc21 ?
-1

Which outcome did this test record for the compound OC[C@H]1O[C@H](O[C@]2(CCl)O[C@H](CCl)[C@@H](O)[C@@H]2O)[C@H](O)[C@@H](O)[C@H]1Cl ?
-1

Which outcome did this test record for the compound CC12CCC(CC1)C(C)(C)O2 ?
-1

* * *

molecular target: Nuclear receptor subfamily 1 group I member 2 (Homo sapiens) (UniProt O75469); experiment: Human pregnane X receptor (PXR) small molecule agonists, qHTS assay (AID 1346982); conditions: PXR-Luc HepG2, CYP3A4 luciferase reporter, 24 h; series mostly up to 92.4 µM; note: nearly all actives have a fitted effect of over 35% in size
Sequence (O75469 whole entry, looked up): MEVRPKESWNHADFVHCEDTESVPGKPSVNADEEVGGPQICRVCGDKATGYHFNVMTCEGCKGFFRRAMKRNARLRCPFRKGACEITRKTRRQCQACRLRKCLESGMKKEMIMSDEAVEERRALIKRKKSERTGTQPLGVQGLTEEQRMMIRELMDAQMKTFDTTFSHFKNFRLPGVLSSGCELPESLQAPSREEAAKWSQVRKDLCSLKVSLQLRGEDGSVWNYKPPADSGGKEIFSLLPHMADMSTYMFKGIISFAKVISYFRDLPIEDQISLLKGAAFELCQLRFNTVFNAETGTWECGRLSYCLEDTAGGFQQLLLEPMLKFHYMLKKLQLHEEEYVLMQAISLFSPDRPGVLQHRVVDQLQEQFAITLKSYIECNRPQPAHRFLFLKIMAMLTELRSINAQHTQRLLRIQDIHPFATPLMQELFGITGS
Records with an inconclusive call do not appear. Activity calls are given as the source filed them. The call rests on the fitted dose curve; in most records, active means well fitted activation curve with a large enough effect in the repeat runs; inconclusive means weak or mixed curves; inactive means no such curve, though single readings can be large or run the other way.
Use one of these outcomes when replying: 1 (yes) for active, 0 (no) for inactive

// below: answered compounds
Which outcome did this test record for the compound CN1CCC[C@H]1c1cccnc1 ?
0 (no)

Which outcome did this test record for the compound CN1[C@@H]2CC(OC(=O)[C@H](CO)c3ccccc3)C[C@H]1[C@@H]1O[C@@H]12 (stereo partly specified) ?
0 (no)

Which outcome did this test record for the compound CN(N=O)C(=O)N[C@@H]1[C@@H](O)[C@H](O)[C@@H](CO)O[C@@H]1O ?
0 (no)

Which outcome did this test record for the compound Nc1c(N=Nc2ccc(-c3ccc(N=Nc4cc(S(=O)(=O)O)c5ccccc5c4N)cc3)cc2)cc(S(=O)(=O)O)c2ccccc12 ?
0 (no)

Which outcome did this test record for the compound CCN(CC)C(=O)c1cccc(C)c1 ?
0 (no)

Continuing:
Which outcome did this test record for the compound NC(=O)c1cccnc1 ?
0 (no)

Which outcome did this test record for the compound Cc1cc(C)nc(NS(=O)(=O)c2ccc(N)cc2)n1 ?
0 (no)

Which outcome did this test record for the compound NS(=O)(=O)c1cc2c(cc1Cl)NCNS2(=O)=O ?
0 (no)

Which outcome did this test record for the compound Cc1ncc([N+](=O)[O-])n1CCO ?
0 (no)

Which outcome did this test record for the compound CC(=O)C(=O)O ?
0 (no)

* * *

assay: qHTS assay to identify small molecule agonists of the TGF-beta/Smad signaling pathway - cell viability counter screen (AID 1346829); conditions: SBE-bla HEK293T viability, CellTiter-Glo luminescence, 5 h; series mostly up to 76.8 µM; note: nearly all actives have a fitted effect of over 45% in size
Results filed as inconclusive are left out. Activity calls are given as the source filed them. Calls follow the shape of the dose curve; as a rule, active = well fitted cell-killing curve with a large enough effect in the repeat runs; inconclusive = weak or mixed curves, or effect the other way; inactive = flat fitted curve, though single readings scatter.
Use one of these outcomes when replying: active, inactive

Which outcome did this test record for the compound O=S1(=O)OC(c2ccc(O)cc2)(c2ccc(O)cc2)c2ccccc21 ?
inactive

Which outcome did this test record for the compound CN(N=O)C(=O)N[C@@H]1[C@@H](O)[C@H](O)[C@@H](CO)O[C@@H]1O ?
inactive

Which outcome did this test record for the compound NC(=O)n1c(O)c(C(=O)c2cccs2)c2cc(Cl)ccc21 ?
inactive

Which outcome did this test record for the compound NS(=O)(=O)O ?
inactive

Which outcome did this test record for the compound CN1CCc2cccc3c2[C@H]1Cc1ccc(O)c(O)c1-3 ?
inactive

Which outcome did this test record for the compound CC1(C)O[C@@H]2C[C@H]3[C@@H]4CCC5=CC(=O)C=C[C@]5(C)[C@@]4(F)[C@@H](O)C[C@]3(C)[C@]2(C(=O)CO)O1 ?
inactive

Which outcome did this test record for the compound CC(=O)CCC(=O)O ?
inactive

Which outcome did this test record for the compound CS(=O)(=O)OCCCCOS(C)(=O)=O ?
inactive

Continuing:
Which outcome did this test record for the compound O=C(Nc1ncc([N+](=O)[O-])s1)c1cccs1 ?
active

Which outcome did this test record for the compound CN1[C@@H]2CC(OC(=O)[C@H](CO)c3ccccc3)C[C@H]1[C@@H]1O[C@@H]12 (stereo partly specified) ?
inactive

Which outcome did this test record for the compound Nc1c2c(nc3ccccc13)CCCC2 ?
inactive
